Measured values drawn from PubChem BioAssay for this set.

# assay-explanation: osmotic lysis modulators in infected erythrocytes, primary screen, PSAC antagonist project, cell-based, P. falciparum Indochina, OD700, 3 h (AID 1156)
# particulars: higher = more signal, called active from +8 up or from −8 down
Listed next: entries and their corresponding z-score.
API note: the answer field is a bare number with no unit suffix.

COc1cccc([C@H]2Oc3ccc(OC)cc3C(=NOC(C)CN3CCCCc4nc(C)c(C)cc43)[C@@H]2O)c1 (some centres undefined) :: 0.32
COC(=O)[C@H](C)NC(=O)CCC1CC(OC(=O)NCc2ccc3c(c2)OCO3)CC2(CCCC(COC(=O)NCCc3ccccc3OC)O2)O1 (some centres undefined) :: -0.257
COc1cccc([C@H]2Oc3ccc(OC)cc3C(=NO[C@@H]3O[C@H](COC(C)=O)[C@@H](OC(C)=O)[C@H](OC(C)=O)[C@H]3OC(C)=O)[C@@H]2O)c1 :: -0.362

The record that follows has no z-score shown yet.
Fill in: z-score of COc1cccc([C@H]2Oc3ccc(OC)cc3C(=NO[C@@H](C)c3cn([C@H](CO)Cc4ccccc4)nn3)[C@@H]2O)c1 is ___
1.19

----------
# system: Alpha-bungarotoxin (Bungarus multicinctus)
# assay-explanation: alpha-bungarotoxin binders on microarray, profiling panel, artefact control for SMM control protein annotation, biochemical, small-molecule microarray, Alexa647 label, 635/667 nm fluorescence (AID 1117)
# particulars: alpha-BTX-A647 binding fluorescence, higher = more signal
metric: composite z-score

Worked examples, 2 molecules total:
COc1ccc(O[C@H]2C=C[C@@H](c3ccccc3)O[C@@H]2COC(=O)CCC(C)=NOC[C@@H](O)[C@H]2O[C@@H]3OC(C)(C)O[C@@H]3[C@H]2O)cc1 :: 0.0391
O=C(NN=C1C[C@@H](O)[C@@H](O)[C@@H]2[C@@H]3C(=O)N(C[C@@H]4CCCO4)C(=O)[C@@H]3CC[C@@H]12)OCc1ccccc1 :: -0.421

Now for a further molecule.
Consider the molecule shown here: COc1ccc(O[C@H]2C=C[C@@H](c3ccccc3)O[C@@H]2COC(=O)CCC(C)=NOC(C)CN2CCCc3nc(C)c(C)cc32)cc1 (stereo partly drawn) What is its recorded composite z-score?
0.463

----------
# assay-explanation: E. coli DRC41 culture turbidity changes, primary screen, E. coli filamentation inducer project, strain DRC41, OD650, 48 h (AID 1152);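 note: E. coli MC1000 strain DRC41 lacking acrAB efflux pump and sulA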
# particulars: E. coli DRC41 (acrAB sulA), higher = more signal, called active from +8 up or from −8 down
The source made the active and inactive calls.
metric: z-score

COC(=O)[C@H](C)NC(=O)CCC1CC(OC(=O)NCc2cccc3ccccc23)CC2(CCCC(COC(=O)NCC(c3ccccc3)c3ccccc3)O2)O1 (stereo partly specified) :: 0.223 (inactive)
Cc1ccc(S(=O)(=O)N[C@H]2COC(=O)CC=C[C@H](C)[C@@H](NS(=O)(=O)c3ccc(C)cc3)COC(=O)CC=C[C@@H]2C)cc1 :: 0.373 (inactive)
C=CC[C@@H]1C=C[C@H](ON=C(C)CCC(=O)OC[C@H]2O[C@H](c3ccccc3)C=C[C@@H]2Oc2ccc(OC)cc2)[C@@H](CO)O1 :: 0.871 (inactive)

Need z-score of CCc1cc2c(nc1CC)CCN(CCC(C)=NO[C@H](C)c1cn([C@@H]3COC[C@H]3O)nn1)C2 , thanks.
0.211 (inactive)

Also, CCC=CCCC(OC(=O)c1ccc(Br)cc1)C1=CCCCC1=O (stereo unspecified) please.
-0.686 (inactive)

// same read-out, input: COC(=O)CC=C[C@@H](C)[C@H](OCc1cccc(-c2ccccc2)c1)C1CCCCC1
-0.249 (inactive)
